Please respond with reported IC50 for every item in the list.
target or system: CDK2/cyclin A2 (Homo sapiens, UniProt P24941)
Construct: purchased Carna Biosciences, Inc. QS S Assist CDK2/Cyclin A2_FP Kit
protocol: Human CDK2/cyclin A2 inhibitory activity (QS S Assist CDK2/Cyclin A2_FP Kit, IMAP fluorescence polarization)
Format: biochemical
recorded conditions: Human CDK2/cyclin A2 inhibitory activity; read-out: CDK2 Activity symbol

[
  {
    "molecule": "CC(C)Nc1nc(C(F)F)cc2cnc(Nc3ccc(CN4CCCC4=O)cn3)nc12 [Compound 165]",
    "IC50": "≥ 100 nM"
  },
  {
    "molecule": "C[C@@H](O)c1cc2cnc(Nc3ccc(CN4CCNCC4)cn3)nc2c(N[C@H]2CCCOC2)n1 [Compound 256]",
    "IC50": "≥ 100 nM"
  },
  {
    "molecule": "CN(C)CCOc1ccc(Nc2ncc3cc(C(F)F)nc(N[C@H]4CC[C@H](O)CC4)c3n2)nc1 [Compound 388]",
    "IC50": "≥ 100 nM"
  },
  {
    "molecule": "CC(=O)c1cc2cnc(Nc3ccc(N4CCNCC4)nn3)nc2c(NC2CCOCC2)n1 [Compound 330]",
    "IC50": "≥ 100 nM"
  }
]

Batch request: IC50 per item, same order as input.
1. CC(C)Nc1nc(C(F)F)cc2cnc(Nc3ccc(N4CCOCC4)cn3)nc12 [Compound 43]
2. CO[C@@H](C)c1cc2cnc(Nc3ccc(N4CCNCC4)cn3)nc2c(NC(C)C)n1 [Compound 38]
3. CC(C)Nc1nc(C(F)F)cc2cnc(Nc3ccc(C(=O)N4CCOCC4)cn3)nc12 [Compound 169]
4. CN(c1nc(C(F)F)cc2cnc(Nc3ccc(N4CCNCC4)cn3)nc12)C1CCCC1 [Compound 5]

10 to 100 nM
≥ 100 nM
10 to 100 nM
≥ 100 nM
